study.system: Multidrug resistance-associated protein 1 (Homo sapiens) (UniProt P33527)
Sequence (P33527 whole entry, looked up): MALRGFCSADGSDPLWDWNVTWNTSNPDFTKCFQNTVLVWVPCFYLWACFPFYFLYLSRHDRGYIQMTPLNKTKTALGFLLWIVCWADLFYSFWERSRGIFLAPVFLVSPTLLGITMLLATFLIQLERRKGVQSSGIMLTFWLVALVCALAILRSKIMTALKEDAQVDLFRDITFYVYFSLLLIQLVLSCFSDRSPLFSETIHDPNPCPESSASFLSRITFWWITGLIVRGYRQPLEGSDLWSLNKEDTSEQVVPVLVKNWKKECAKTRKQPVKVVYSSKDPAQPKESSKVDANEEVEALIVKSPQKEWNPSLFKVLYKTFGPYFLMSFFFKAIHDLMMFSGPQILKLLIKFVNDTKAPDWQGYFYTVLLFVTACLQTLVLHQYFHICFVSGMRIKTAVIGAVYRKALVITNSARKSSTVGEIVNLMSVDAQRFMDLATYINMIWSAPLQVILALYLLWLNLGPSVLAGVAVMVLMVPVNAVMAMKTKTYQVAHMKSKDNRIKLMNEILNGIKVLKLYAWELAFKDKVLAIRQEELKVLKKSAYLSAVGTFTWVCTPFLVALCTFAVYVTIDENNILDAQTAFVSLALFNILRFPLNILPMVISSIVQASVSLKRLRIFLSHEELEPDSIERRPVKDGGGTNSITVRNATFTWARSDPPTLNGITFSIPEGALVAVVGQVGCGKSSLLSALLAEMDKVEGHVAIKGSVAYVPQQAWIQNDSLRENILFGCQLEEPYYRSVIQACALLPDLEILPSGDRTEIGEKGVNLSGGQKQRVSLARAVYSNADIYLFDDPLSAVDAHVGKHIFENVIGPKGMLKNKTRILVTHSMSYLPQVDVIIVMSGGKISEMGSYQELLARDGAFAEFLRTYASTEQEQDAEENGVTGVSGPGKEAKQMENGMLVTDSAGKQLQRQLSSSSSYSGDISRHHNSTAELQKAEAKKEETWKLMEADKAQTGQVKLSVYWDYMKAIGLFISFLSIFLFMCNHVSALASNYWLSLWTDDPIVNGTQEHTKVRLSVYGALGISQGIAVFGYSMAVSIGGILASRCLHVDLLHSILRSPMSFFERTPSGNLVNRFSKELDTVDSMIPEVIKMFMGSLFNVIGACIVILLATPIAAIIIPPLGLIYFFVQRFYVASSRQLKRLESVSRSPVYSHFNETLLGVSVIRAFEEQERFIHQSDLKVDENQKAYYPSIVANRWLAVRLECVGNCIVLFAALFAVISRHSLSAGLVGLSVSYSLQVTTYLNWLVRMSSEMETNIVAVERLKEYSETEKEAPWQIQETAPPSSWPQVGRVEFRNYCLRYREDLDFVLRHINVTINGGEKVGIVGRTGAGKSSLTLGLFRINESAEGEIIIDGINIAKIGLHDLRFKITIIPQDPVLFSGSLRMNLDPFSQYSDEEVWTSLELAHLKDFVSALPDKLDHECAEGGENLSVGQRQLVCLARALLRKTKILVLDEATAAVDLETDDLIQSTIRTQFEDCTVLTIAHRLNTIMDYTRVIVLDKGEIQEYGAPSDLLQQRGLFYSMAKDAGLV
procedure.details: Effective concentration to inhibit MRP1 in potentiation assay
observed.property: EC50 (nM)
Give bare numbers, in nM.

## Input Report EC50 for COc1cccc(CNC(=O)c2c3n(c4c(N5CCN(CCc6ccc(F)c(F)c6)CC5)ncnc24)CCCC3)c1OC please.
## Output 150

---

study.system: Multidrug resistance-associated protein 1 (Homo sapiens) (UniProt P33527)
procedure.details: Effective concentration to inhibit MRP1 in potentiation assay
observed.property: EC50 (µM)
Numbers only, in µM.

* NC(=O)c1c2n(c3c(N4CCN(CCc5ccc(F)c(F)c5)CC4)ncnc13)CCCC2 | 0.117

From here, focus on the item given below.
## Input Any idea what its EC50 is? The molecule is O=C(NCc1ccccn1)c1c2n(c3c(N4CCN(CCc5ccc(F)c(F)c5)CC4)ncnc13)CCCC2
## Output 0.097
